Data credit: patent US5459146A

The entries below come with measured log10(IC50) values attached.
# Test system: HSV Early Gene Expression
# test_description: Transient Expression Assay for Effects Against HSV Early Gene Expression (β Galactosidase Assay or βgal)
# Format: cell-based
# experimental_conditions: read-out: βgal
Hi team, quick reminder: these entries are log10 of IC50 (µg/mL).

Consider the following illustrative entries.
>>> result_number("CCC(=O)Oc1ccc2nc3[nH]nc(C)c3c(OC(=O)CC)c2c1")
1.04
>>> result_number("COc1cc(C)c2[nH]c3c(c(C)nn3C(C)=O)c(=O)c2c1")
0.70
>>> result_number("CCCCCCCn1nc(C)c2c(=O)c3cc(C)ccc3[nH]c21")
0.48
>>> result_number("CC(=O)n1nc(C)c2c(O)c3cc(C)ccc3nc21")
0.95
>>> result_number("COc1ccc2nc3c(c(C)nn3C(C)=O)c(O)c2c1")
0.48

Measured log10(IC50) of CC(=O)Oc1ccc2nc3[nH]nc(C)c3c(OC(C)=O)c2c1 : 0.48

Measured log10(IC50) of CCCCC(=O)Oc1ccc2nc3[nH]nc(C)c3c(OC(=O)CCCC)c2c1 : 0.70

Measured log10(IC50) of CC(=O)Oc1c2cc(F)ccc2nc2[nH]nc(C)c12 : 0.48

Measured log10(IC50) of C=CCOc1ccc2nc3c(c(C)nn3CC=C)c(O)c2c1 : 1.30

Measured log10(IC50) of COc1ccc2nc3[nH]nc(C)c3c(OCCN3CCOCC3)c2c1 : 1.30

Measured log10(IC50) of COc1ccc2nc3[nH]nc(C)c3c(OCCN(C)C)c2c1 : 0.15
